Molecular target: Alpha-galactosidase (Coffea arabica)
Test: Inhibition of coffee bean alpha-galactosidase using p-nitrophenyl glycoside as substrate assessed as release of p-nitrophenol at 1000 uM by spectrometric analysis relative to control
measurement_kind: inhibition (%)
Expressed in %, but write only the number.

Could you tell me which inhibition is on file for CCCCCCC[C@H](O)[C@@H]1N[C@@H](CO)[C@H](O)[C@H]1O ?
0

Would you kindly repeat that for OCCC[C@@H](O)CCCCCCCC[C@H](O)C1N[C@H](CO)[C@@H](O)[C@@H]1O (single isomer, unassigned) ?
4.6

What do we get for OCCC[C@@H](O)CCCCCCCC[C@H](O)[C@@H]1N[C@@H](CO)[C@H](O)[C@H]1O ?
4.8

Similarly, OCCC[C@H](O)CCCCCCCC[C@@H](O)[C@H]1N[C@H](CO)[C@@H](O)[C@@H]1O ?
4.5

What do you have for OCCC[C@@H](O)CCCCCCCC[C@@H](O)[C@H]1N[C@H](CO)[C@@H](O)[C@@H]1O ?
4.4

Entry to check: CCCCCC[C@@H](O)[C@H]1N[C@H](CO)[C@@H](O)[C@@H]1O
0

How about this compound: Cl.OCCC[C@@H](O)CCCCCCCC[C@@H](O)[C@@H]1N[C@@H](CO)[C@H](O)[C@H]1O
4.1

Now this one: OCCC[C@H](O)CCCCCCCC[C@H](O)[C@H]1N[C@H](CO)[C@@H](O)[C@@H]1O
4.7

Consider next the compound CCCCCC[C@H](O)[C@H]1N[C@H](CO)[C@@H](O)[C@@H]1O in the same way.
0

Continue with OCCC[C@@H](O)CCCCCCCCC[C@H]1N[C@H](CO)[C@@H](O)[C@@H]1O
0

Field entry: CCCCCCC[C@@H](O)[C@@H]1N[C@@H](CO)[C@H](O)[C@H]1O
0

For OCCC[C@H](O)CCCCCCCCC[C@@H]1N[C@@H](CO)[C@H](O)[C@H]1O then?
0.3

How about OCCC[C@H](O)CCCCCCCC[C@H](O)[C@@H]1N[C@@H](CO)[C@H](O)[C@H]1O ?
4.9

Would you kindly repeat that for OCCC[C@H](O)CCCCCCCC[C@@H](O)[C@@H]1N[C@@H](CO)[C@H](O)[C@H]1O ?
4.11

What do we get for CCCCCCC[C@@H](O)[C@H]1N[C@H](CO)[C@@H](O)[C@@H]1O ?
0

And for CCCCCCC[C@H](O)[C@H]1N[C@H](CO)[C@@H](O)[C@@H]1O ?
0

====

Molecular target: Alpha-mannosidase (Canavalia ensiformis) (UniProt C0HJB3)
Sequence (whole entry): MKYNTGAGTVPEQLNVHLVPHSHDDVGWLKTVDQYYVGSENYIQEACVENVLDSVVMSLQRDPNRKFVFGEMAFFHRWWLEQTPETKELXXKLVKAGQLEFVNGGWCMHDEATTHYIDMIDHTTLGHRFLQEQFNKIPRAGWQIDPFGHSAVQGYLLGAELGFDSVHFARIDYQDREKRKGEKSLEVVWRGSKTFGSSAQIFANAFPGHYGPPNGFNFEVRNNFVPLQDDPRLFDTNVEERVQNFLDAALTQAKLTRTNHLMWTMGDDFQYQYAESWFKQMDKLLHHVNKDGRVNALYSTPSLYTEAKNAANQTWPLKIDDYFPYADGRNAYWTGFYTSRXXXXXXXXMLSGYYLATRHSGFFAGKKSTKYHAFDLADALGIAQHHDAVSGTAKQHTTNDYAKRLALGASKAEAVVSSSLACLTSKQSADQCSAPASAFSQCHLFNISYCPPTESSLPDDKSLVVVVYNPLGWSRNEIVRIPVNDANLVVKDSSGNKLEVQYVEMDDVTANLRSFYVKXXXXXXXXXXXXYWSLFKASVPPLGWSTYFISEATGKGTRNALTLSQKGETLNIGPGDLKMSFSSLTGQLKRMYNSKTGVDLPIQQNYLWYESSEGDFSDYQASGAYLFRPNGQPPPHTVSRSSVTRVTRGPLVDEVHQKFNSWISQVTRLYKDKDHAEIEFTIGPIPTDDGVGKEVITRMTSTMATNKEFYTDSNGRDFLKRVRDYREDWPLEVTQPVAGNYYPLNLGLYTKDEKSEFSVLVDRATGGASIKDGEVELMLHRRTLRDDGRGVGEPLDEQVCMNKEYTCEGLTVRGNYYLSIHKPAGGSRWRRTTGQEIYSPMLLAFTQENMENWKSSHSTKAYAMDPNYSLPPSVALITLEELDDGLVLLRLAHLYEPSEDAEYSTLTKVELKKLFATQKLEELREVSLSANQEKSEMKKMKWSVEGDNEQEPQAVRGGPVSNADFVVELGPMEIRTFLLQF
Experiment: Inhibition of jack bean alpha-mannosidase using p-nitrophenyl glycoside as substrate assessed as release of p-nitrophenol at 1000 uM by spectrometric analysis relative to control
1.0 means recorded inhibition is 2% or above; 0.0 means it is below 2%.

hey, is inhibition for this one >= 2%? CCCCCCC[C@@H](O)[C@H]1N[C@H](CO)[C@@H](O)[C@@H]1O
0.0

How about Cl.OCCC[C@@H](O)CCCCCCCC[C@@H](O)[C@@H]1N[C@@H](CO)[C@H](O)[C@H]1O ?
0.0

OCCC[C@H](O)CCCCCCCC[C@@H](O)[C@H]1N[C@H](CO)[C@@H](O)[C@@H]1O , same question.
0.0

Now this one: OCCC[C@@H](O)CCCCCCCC[C@H](O)C1N[C@H](CO)[C@@H](O)[C@@H]1O (single isomer, unassigned)
0.0

And for OCCC[C@H](O)CCCCCCCC[C@H](O)[C@H]1N[C@H](CO)[C@@H](O)[C@@H]1O ?
0.0

Now this one: CCCCCC[C@@H](O)[C@H]1N[C@H](CO)[C@@H](O)[C@@H]1O
1.0

Quick one: CCCCCCC[C@@H](O)[C@@H]1N[C@@H](CO)[C@H](O)[C@H]1O
0.0

Would you kindly repeat that for CCCCCCC[C@H](O)[C@H]1N[C@H](CO)[C@@H](O)[C@@H]1O ?
0.0

Let us now turn to OCCC[C@@H](O)CCCCCCCC[C@H](O)[C@@H]1N[C@@H](CO)[C@H](O)[C@H]1O
1.0

Another: OCCC[C@H](O)CCCCCCCC[C@@H](O)[C@@H]1N[C@@H](CO)[C@H](O)[C@H]1O
0.0

Please answer likewise for CCCCCCC[C@H](O)[C@@H]1N[C@@H](CO)[C@H](O)[C@H]1O
1.0

Same question, OCCC[C@H](O)CCCCCCCCC[C@@H]1N[C@@H](CO)[C@H](O)[C@H]1O this time
1.0

Another compound to check: OCCC[C@@H](O)CCCCCCCCC[C@H]1N[C@H](CO)[C@@H](O)[C@@H]1O
1.0

Do the same for OCCC[C@@H](O)CCCCCCCC[C@@H](O)[C@H]1N[C@H](CO)[C@@H](O)[C@@H]1O please
0.0

Continue with CCCCCC[C@H](O)[C@H]1N[C@H](CO)[C@@H](O)[C@@H]1O
1.0

// query: OCCC[C@H](O)CCCCCCCC[C@H](O)[C@@H]1N[C@@H](CO)[C@H](O)[C@H]1O
0.0
